experimental_system: Man(a1-2)Man(a1-2)Man(a1-6)[Man(a1-3)]Man
experiment_summary: glycan array binding signal (z-score within array); higher = stronger binding
condition_description: glycan notation: IUPAC condensed, linker removed
The entries come from a sample that favours the strongest signals as a whole.
endpoint_name: glycan array binding signal (z-score)
Answer using only a numeral; do not append any unit.

Q: Any idea what glycan array binding signal (z-score) was measured for BDCA2 ex-domain (Homo sapiens) (protein) MASHHHHHHIEGRGLNDIFEAQKIEWHESLVPRGSCPTPWTSFQSSCYFISTGMQSWTKSQKNCSVMGADLVVINTREEQDFIIQNLKRNSSYFLGLSDPGGRRHWQWVDQTPYNENVTFWHSGEPNNLDERCAIINFRSSEEWGWNDIHCHVPQKSICKMKKIY ?
Result: -0.128

Q: Any idea what glycan array binding signal (z-score) was measured for MPA (Maclura pomifera), P18674 (protein) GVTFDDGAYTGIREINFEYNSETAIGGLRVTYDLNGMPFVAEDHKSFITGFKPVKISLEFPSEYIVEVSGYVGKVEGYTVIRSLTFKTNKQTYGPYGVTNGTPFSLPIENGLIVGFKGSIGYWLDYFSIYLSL ?
Result: -0.161

Q: Any idea what glycan array binding signal (z-score) was measured for DCIR1 (Mus musculus), Q9QZ15 (protein) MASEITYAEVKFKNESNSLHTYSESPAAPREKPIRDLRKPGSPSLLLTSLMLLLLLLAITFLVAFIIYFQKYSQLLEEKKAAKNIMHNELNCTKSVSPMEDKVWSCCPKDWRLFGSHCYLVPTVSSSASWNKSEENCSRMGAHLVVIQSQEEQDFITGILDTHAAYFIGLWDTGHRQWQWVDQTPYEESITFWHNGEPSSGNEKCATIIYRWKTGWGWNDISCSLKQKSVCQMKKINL ?
Result: 4.44

Q: Any idea what glycan array binding signal (z-score) was measured for Microvirin-2 (Microcystis aeruginosa) (protein) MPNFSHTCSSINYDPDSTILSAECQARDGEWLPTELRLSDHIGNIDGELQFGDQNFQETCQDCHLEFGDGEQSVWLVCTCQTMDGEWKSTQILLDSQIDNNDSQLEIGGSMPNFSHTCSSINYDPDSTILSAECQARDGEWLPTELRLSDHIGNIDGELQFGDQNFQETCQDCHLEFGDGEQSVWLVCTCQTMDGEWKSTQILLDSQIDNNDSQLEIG ?
Result: 9.44
